Readings of Percent Control for the listed compounds
- System: NEK5
- measurement.setup: Compound Concentration (nM):1000;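 further: KINOMEscan scanMAX binding as percent activity remaining versus control; lower means stronger binding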
Answer with a number only, understood to be in %.

Would you please look over these solved cases?
> print(dat)
                                   compound     readout.kind  value.observed
1  COC(=O)Nc1nc2ccc(Oc3ccc(NC(=O)Nc4cc(C(F)(F)F)ccc4F)cc3)cc2s1.Cl [GW693917A]  Percent Control              76
2  Cl.O=C(O[C@H]1CN[C@H](C#Cc2cc3ncnc(Nc4ccc5c(cnn5Cc5ccccc5)c4)c3s2)C1)N1CCOCC1 [GSK200398A]  Percent Control             100
3  CC1=C(C(=O)Nc2ccc3[nH]ncc3c2)C(c2ccc3ccccc3c2)CC(=O)N1 (stereo not drawn) [GSK270822A]  Percent Control             100

Q: Given CCS(=O)(=O)c1ccc(OC)c(Nc2ncc(-c3cccc(F)c3)o2)c1 [GW621970X] , respond with its Percent Control.
Result: 95

Q: Given `COc1cc(C)c(N(C)C(=O)CN(C)C)cc1Nc1nc(Nc2cccc(F)c2C(N)=O)c2cc[nH]c2n1` , respond with its Percent Control.
Result: 94

Q: Given `CCc1ccc(Oc2nccc(-c3c(-c4ccc(F)cc4)ncn3C3CCNCC3)n2)cc1` , respond with its Percent Control.
Result: 100

Q: Given NS(=O)(=O)c1ccc(N/N=C2\C(=O)Nc3ccc(C(=O)NCc4ccncc4)cc32)cc1 [GW300657X] , respond with its Percent Control.
Result: 92

Q: Given NS(=O)(=O)c1ccc(N/N=C2\C(=O)Nc3ccc(Cl)cc32)cc1 [GW280670X] , respond with its Percent Control.
Result: 100

Q: Given Cl.O=S1CCN(Cc2ccc(-c3ccc4ncnc(Nc5ccc(OCc6ccccc6)c(F)c5)c4c3)o2)CC1 [GW576924A] , respond with its Percent Control.
Result: 100

Q: Given COc1cc2ncn(-c3cc(O[C@H](C)c4ccccc4Cl)c(C(N)=O)s3)c2cc1OC [GSK237701A] , respond with its Percent Control.
Result: 9.1

Q: Given `CCn1c(-c2nonc2N)nc2c(C#CC(C)(C)O)nc(OCCNC)cc21.Cl` , respond with its Percent Control.
Result: 100

Q: Given COc1cc2ncnc(Nc3ccc4c(cnn4Cc4ccccc4)c3)c2cc1OC.Cl [GW282449A] , respond with its Percent Control.
Result: 100

Q: Given COc1cc(C=NNc2ncnc3c2cnn3-c2ccccc2)ccc1O [GW513184X] , respond with its Percent Control.
Result: 76

Q: Given CN(C)c1cc2c(Nc3ccc4c(cnn4Cc4ccccc4)c3)ncnc2cn1 [GW282974X] , respond with its Percent Control.
Result: 48

* * *

- Test system: MST1R
- measurement.setup: Compound Concentration (nM):1000
readout.kind: Percent Control (%)
Answer with a number only, understood to be in %.

> print(dat)
                                   compound  measurement.units  value.observed
1  COc1ccc2[nH]c3c4[nH]c5ccc(OC)cc5c4c4c(c3c2c1)C(=O)NC4=O [GW296115X]                  %              93

Q: Given Cl.c1ccc(Cc2nc3ccc(Nc4ncnc5ccccc45)cc3[nH]2)cc1 [GR269666A] , respond with its Percent Control.
Result: 100

Q: Given CC1=C(C(=O)Nc2ccc3[nH]ncc3c2)C(c2ccc(Cl)c(Cl)c2)CC(=O)N1 (stereo not drawn) [GSK299115A] , respond with its Percent Control.
Result: 91

Q: Given COc1cccc(-n2ncc3c(N/N=C/c4ccncc4)ncnc32)c1 [GW784752X] , respond with its Percent Control.
Result: 100
